# system-under-test: T1, Abeta peptide (40-amino acid Abeta peptide, SEQ ID NO: 1), biotinylated (human, N-terminal biotin or C-terminal lysine-linked biotin, separated from the peptide by a PEG6 linker)
# T1 construct: Synthesized by Genscript; also called amyloid beta; test peptide
# T1 sequence (peptide, as listed by the source): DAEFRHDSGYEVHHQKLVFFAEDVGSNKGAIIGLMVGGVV
# experiment-description: BLI (Octet HTX), biotinylated Abeta on streptavidin sensors, 1 uM VHH, 1:1 fit
Provide the reported koff of each item.
Hi! Could you send only the number? It should be in s⁻¹, unit omitted.

Returns the measured koff for the input binder. Input: vhhLib02-93 (VHH, The entry as printed includes HHHHHH) VHH: EVQLVESGGGLVQPGGSLRLSCAASGFTFSDYHMSWYRQAPGKQREPVSVINSGGYTYYADSVKGRFTISRDNSKNTLYLQMNSLRAEDTAVYYCARAQAAHYLYGYFDIWGQGTLVTVSS
0.00314

Please do the same for vhhLib05-14 (VHH, The entry as printed includes a doubled TLVTVSS and HHHHHH) VHH: EVQLLESGGGLVQPGGSLRLSCAASGFTFSSYAMSWVRQAPGKQREWVSAISGSGGSTYYADSVKGRFTISRDNSKNTLYLQMNSLRAEDTAVYYCARLSIVDVVTVFDVWGQGTLVTVSS as well.
0.000443

Please do the same for vhhLib01-34 (VHH, The entry as printed includes HHHHHH) VHH: QVQLVESGGGLVQPGGSLRLSCAASGSIFSVNRMGWYRQAPGKQRELVAAIISGGATNYADSVKGRFTISRDNAKNTVYLQMNSLKPEDTAVYYCARRPAPNGRYHSWYAFDYWGQGTLVTVSS as well.
0.00268

Please do the same for vhhLib01-49 (VHH, The entry as printed includes HHHHHH) VHH: QVQLVESGGGLVQPGGSLRLSCAASGSIFSHNTMGWYRQAPGKQRELVAAINSGGSTNYADSVKGRFTISRDNAKNTVYLQMNSLKPEDTAVYYCARYIQTYTWGYFDYWGQGTLVTVSS as well.
0.000734
